Target: Prostaglandin E2 receptor EP2 subtype (Homo sapiens)
Test: compounds shifting PGE2 potency at EP2 – cell-based, human EP2, PGE2 EC50 shift, dose response (AID 1421)
Conditions: EP2-expressing cells, PGE2 EC50 shift by compound; at 20 µM
Hit rate of the full screen: of about 1,300 compounds, about 140 (11%) were called active. A selection follows. Results with a measured potency or affinity are listed apart.
MEASURED ATTRIBUTE: PGE2 EC50 with compound

COMPOUND | PGE2 EC50 with compound
CCOC(=O)c1c(NC(=O)c2ccn(CC)n2)sc2c1CCCC2 | 0.33 nM (inactive)

Hi, could you look up PGE2 EC50 with compound for each item in my list?
1. Clc1ccc(Cl)c(-c2ccc(/C=N/c3ncn[nH]3)o2)c1
2. O=c1c2ccccc2nc(/C=C/c2ccccc2)n1CCc1ccccc1
3. CCOC(=O)C1=C(N)OC(C)=C(C#N)C1c1ccco1 (stereo not drawn)
4. CCOC(=O)C1CCN(c2c(C(=O)c3ccccc3)cnc3ccc(CC)cc23)CC1
5. FC(F)(F)c1nnc(-c2ccccc2)nc1Sc1ccccc1

1. 2.61 nM (inactive)
2. 0.1 nM (inactive)
3. 0.56 nM (inactive)
4. 0.81 nM (inactive)
5. 0.72 nM (inactive)

Hi, could you look up PGE2 EC50 with compound for each item in my list?
1. O=C(O)c1cccc(NN=C2c3ccccc3-c3ccccc32)c1
2. O=c1c2ccccc2n(Cc2ccc(Cl)cc2)c(=O)n1Cc1ccco1
3. COc1cc(NC(=S)NC(=O)c2cc(C)cc(C)c2)ccc1NC(=O)c1cccs1

1: 0.74 nM (inactive); 2: 0.38 nM (inactive); 3: 0.3 nM (inactive)

Hi, could you look up PGE2 EC50 with compound for each item in my list?
1. COCCOC(=O)c1c(C)oc2ccc(OCc3ccccc3)cc12
2. Cc1cc2cc3c(cc2nc1SCC(=O)OC(C)C)OCO3
3. COc1cc(/C=C/c2ccc3cccc([N+](=O)[O-])c3n2)ccc1OCC(=O)O

1: 0.53 nM (inactive); 2: 0.21 nM (inactive); 3: 4.66 nM (inactive)

###

Biological target: Prostaglandin E2 receptor EP2 subtype (Homo sapiens) (UniProt P43116)
Sequence (P43116 whole entry, looked up): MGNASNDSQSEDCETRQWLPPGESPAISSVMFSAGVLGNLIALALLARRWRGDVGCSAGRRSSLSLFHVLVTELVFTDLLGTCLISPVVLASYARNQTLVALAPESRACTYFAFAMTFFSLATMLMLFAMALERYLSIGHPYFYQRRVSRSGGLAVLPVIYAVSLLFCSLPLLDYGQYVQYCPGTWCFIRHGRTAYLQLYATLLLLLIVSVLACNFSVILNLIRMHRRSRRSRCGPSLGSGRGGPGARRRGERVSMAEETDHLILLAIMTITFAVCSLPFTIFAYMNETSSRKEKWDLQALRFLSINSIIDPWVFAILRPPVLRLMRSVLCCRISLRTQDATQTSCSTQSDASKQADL
Assay: compounds shifting PGE2 potency at EP2 – cell-based, human EP2, PGE2 EC50 shift, dose response (AID 1421)
Settings: EP2-expressing cells, PGE2 EC50 shift by compound; at 20 µM
Out of some 1,300 compounds screened, about 140 (11%) were called active. These entries were drawn from the full list. Measured potencies and affinities stand elsewhere.
Provide the recorded PGE2 EC50 with compound for the entries that follow.

Below, each entry is followed by its recorded PGE2 EC50 with compound result.
MOLECULE | EXPERIMENTAL SYSTEM | PGE2 EC50 with compound
CCOP(=O)(OCC)c1nc(-c2cccc3ccccc23)oc1N1CCCCC1 | Prostaglandin E2 receptor EP2 subtype (Homo sapiens) (UniProt P43116) | 0.42 nM (inactive)
CC(Cc1ccccc1)NC(=O)C1(c2ccccc2)CCOCC1 (configuration not stated) | Prostaglandin E2 receptor EP2 subtype (Homo sapiens) (UniProt P43116) | 1.12 nM (inactive)
Cc1ccc(S(=O)(=O)c2c(C)cc(C)nc2N2CCCCC2)cc1 | Prostaglandin E2 receptor EP2 subtype (Homo sapiens) (UniProt P43116) | 0.31 nM (inactive)

Hi, could you look up PGE2 EC50 with compound for each item in my list?
1. C=CCn1c(SCC(N)=O)nc(C)cc1=O
2. O=[N+]([O-])c1ccc(Cl)c2c1C1C=CCC1C(c1ccccn1)N2 (configuration not stated)
3. Cn1c(=O)c2c(nc(CN3CCN(c4ccccc4)CC3)n2Cc2c(F)cccc2Cl)n(C)c1=O
4. CCOC(=O)c1c(N)nn(C(=O)C(C)(C)C)c1-c1ccccc1
5. c1ccc(Cc2nc3ccccc3n2Cc2ccccc2)cc1
6. Cc1scc(-c2n[nH]c(=S)n2Cc2ccccc2)c1C
7. CCOC(=O)CN(C(=O)CSc1nnc(Cc2ccccc2)n1-c1ccc(C)cc1)c1ccccc1

0.82 nM (inactive)
0.53 nM (inactive)
0.37 nM (inactive)
0.11 nM (inactive)
0.31 nM (inactive)
0.54 nM (inactive)
0.47 nM (inactive)
